Where these numbers come from: FireProtDB (doi:10.1006/jmbi.2001.4728)

Assign unfolding free energy to each entry below.
B1: Cytochrome c-551, P00099 (parent)
chain: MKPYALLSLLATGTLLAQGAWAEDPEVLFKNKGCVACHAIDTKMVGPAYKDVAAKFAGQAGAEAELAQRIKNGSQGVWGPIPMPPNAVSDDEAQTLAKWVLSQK

# Variants of: B1
# experimental-parameters: Pseudomonas aeruginosa (strain ATCC 15692 / DSM 22644 / CIP 104116 / JCM 14847 / LMG 12228 / 1C / PRS 101 / PAO1); pH 7; 10 °C; Urea; Fluorescence; sodium phosphate 50 mM; reversible: yes; structure 451C; whole UniProt chain shown
Returns: string containing the number followed by the unit.

Q) What does the data say about its unfolding free energy? Entry: E92Q
A) 6.2 kcal/mol

Q) Value lookup for unfolding free energy; key = E92V
A) 5.1 kcal/mol

Q) So what does the record say about unfolding free energy for W99F ?
A) 5.9 kcal/mol

Q) Tell me the measured unfolding free energy of W78F , please.
A) 5.2 kcal/mol
